# TARGET_OR_TEST_SYSTEM: UniProt:P43490
# Sequence (P43490 whole entry): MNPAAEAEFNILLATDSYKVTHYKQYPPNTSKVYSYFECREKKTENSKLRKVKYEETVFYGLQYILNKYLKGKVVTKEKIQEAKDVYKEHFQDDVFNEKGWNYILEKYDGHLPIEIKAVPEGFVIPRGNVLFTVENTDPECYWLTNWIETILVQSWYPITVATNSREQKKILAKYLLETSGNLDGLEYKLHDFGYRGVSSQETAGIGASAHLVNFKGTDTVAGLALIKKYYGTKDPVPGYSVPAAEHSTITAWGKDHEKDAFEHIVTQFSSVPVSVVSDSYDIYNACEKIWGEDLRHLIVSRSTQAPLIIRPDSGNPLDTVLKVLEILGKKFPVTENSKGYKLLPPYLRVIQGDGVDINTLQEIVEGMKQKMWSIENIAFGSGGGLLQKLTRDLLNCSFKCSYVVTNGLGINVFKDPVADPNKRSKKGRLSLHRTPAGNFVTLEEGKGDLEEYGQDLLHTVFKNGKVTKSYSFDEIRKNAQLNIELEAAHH
# TEST_DESCRIPTION: Positive allosteric modulator activity at human C-terminal his 6 tagged NAMPT using NAM and PRPP as substrate by coupled enzymatic analysis
ENDPOINT: EC50

COc1ccc(CN(CCC2(C(C)C)CCOC(C)(C)C2)C(=O)c2ccco2)c(C(F)(F)F)c1 (stereo unspecified)	Not Active
COc1ccc(CNCCC2CCOCC2)cc1	Not Active
COc1ccc(CN(CCC2(C(C)C)CCOC(C)(C)C2)C(=O)c2cnc[nH]2)cc1 (stereo unspecified)	> 8 µM
COc1ccc(CNC(=O)c2ccco2)cc1	Not Active

For every listed record, write down its EC50.
1. CC(C)C1(CCN(Cc2ccc(OC(F)(F)F)cc2)C(=O)c2ccco2)CCOC(C)(C)C1 (stereo unspecified)
2. COc1ccc(CN(CCC2(C(C)C)CCOC(C)(C)C2)C(=O)c2cncnc2)cc1 (stereo unspecified)

[reply]
1. Not Active
2. Not Active
